test system: MDA-MB-231 breast; test: NCI-60 one-dose screen, 48 h (100 = growth as untreated, 0 = no growth, -100 = all killed); details: 10 µM unless noted
The panel holds about 83,000 compounds, 20% with a hit somewhere; the sample as a whole holds those more often.
Use TRUE when the recorded growth is no lower than 90%; use FALSE when it is lower.

Is the recorded value of growth equal to or greater than 90% for this compound? O=C1CSC(c2ccccc2O)N1c1nnc(Cn2cnnc2)o1 (stereo unspecified)
FALSE

Same question for `Cc1cc(NS(=O)(=O)c2ccccc2)c(OS(=O)(=O)c2ccccc2)cc1C` please.
TRUE

Same question for `CCCc1nc2ccccn2c1Nc1ccc(C(=O)NO)cc1` please.
TRUE

Same question for CCN(CC)CCCC(C)NCc1ccccc1 (stereo unspecified) please.
TRUE

Same question for `O=C(/C=C/c1ccccc1)c1ccc2ccccc2c1` please.
TRUE

Same question for O=c1ccn(C2OC(F)(CO)C(O)C2F)c(=O)[nH]1 (stereo unspecified) please.
TRUE

Same question for `c1ccc2c(c1)ncn2-c1nc2ccccc2n2c1nc1ccccc12` please.
FALSE

Same question for `COc1ccc(Oc2nc(Nc3ccc(N4CCCCC4)nc3)ncc2NC(=O)c2cc(OC)cc(OC)c2)cc1` please.
FALSE

Same question for `CCNCCNc1cc(-c2cccc(C(F)(F)F)c2)c(C#N)c2nc3ccccc3n12` please.
FALSE

Same question for `Cc1cc(=O)[nH]c(N/N=C/c2cc(Br)ccc2O)n1` please.
FALSE

Same question for `Cn1ccc(Cc2cnc(N)s2)n1` please.
TRUE

Same question for `CN=C1C=CC(=C(c2ccc(N(C)C)cc2)c2ccc(N(C)C)cc2)C=C1` please.
FALSE

Same question for `C=C1C(=O)O[C@H]2[C@H]1CC/C(COC(=O)/C=C\C(=O)NCc1ccc(Cn3c(=O)sn(CCCI)c3=O)cc1)=C\CC[C@@]1(C)O[C@@H]21` please.
FALSE

Same question for `N#C/C(=C\c1ccc2c(c1)OCO2)n1nnc2ccccc21` please.
FALSE

Same question for `O[C@H]1CO[C@H]2[C@@H]1OC[C@@H]2Oc1ccc(Nc2ccnc(Nc3ccc(O[C@H]4CO[C@H]5[C@@H]4OC[C@@H]5O)c(Cl)c3)n2)cc1Cl` please.
FALSE

Same question for `Cc1cc(Cc2cc(C)cc(C(C)(C)C)c2O)c(O)c(C(C)(C)C)c1` please.
FALSE

Same question for CCOC(=O)C(O)C(O)(c1ccccc1)c1ccccc1 (stereo unspecified) please.
TRUE

Same question for `COc1ccc(OC)c(/C=C2\COc3ccc(O)c(O)c3C2=O)c1` please.
FALSE

Same question for `COc1ccc(/C(C)=C(\c2ccc(Cl)cc2)c2ccc(OCCN3CCCCCC3)cc2)cc1F` please.
FALSE

----------
tested on: SNB-75 CNS; experiment: NCI-60 one-dose screen, 48 h; conditions: 10 µM unless noted
About 83,000 compounds went through this panel and 20% of them were active in at least one assay; those are over-represented in the sample as a whole. Active and inactive are the calls of the source. Rule for the calls: active = growth percent below 10; inactive = the rest.
Answer with one of the outcomes given here: active, inactive

Tell me the assay call for `COc1cc2c(=O)n(CCCn3ccnc3)c3c4cc5c(cc4ccc3c2cc1OC)OCO5` please.
active

Same question for `CCCCS(=O)(=O)Oc1ccc(-c2nc(C)c(C(=O)OCC)s2)cc1C=O` please.
inactive

Same question for C=C1c2c(C)nn(-c3ccc(NC(C)=O)cc3)c2N(C)C23CC1C1(C)c4c(C)nn(-c5ccc(NC(C)=O)cc5)c4N(C)C(C)(CC12)C3 (centres undefined) please.
inactive

Same question for `COc1cc(CNC(=O)/C=C/C=C/c2ccc3c(c2)OCO3)ccc1OCc1cn(-c2ccc(Cl)c(Cl)c2)nn1` please.
active

Same question for N#Cc1c(-c2ccccc2)nc(SCC2CO2)nc1N1CCOCC1 (centres undefined) please.
inactive

Same question for `Cc1ccc(NC(=O)C(Cl)Cl)cc1` please.
inactive

Same question for `Cc1nc(Nc2cccc(NC(=O)Nc3ccc(Cl)cc3)c2)c2ccccc2n1` please.
inactive

Same question for `CCCCn1c(=O)[nH]c(N)c(C(c2ccc(F)cc2)c2c(N)[nH]c(=O)n(CCCC)c2=O)c1=O` please.
inactive

Same question for `CN=C1C=CC(=C(c2ccc(N(C)C)cc2)c2ccc(N(C)C)cc2)C=C1` please.
active

Same question for `Nc1c(C(=O)c2ccc(Cl)s2)sc2nc3c(cc12)CCCC3` please.
inactive

Same question for `CC/C=C/[C@@H]1C=C[C@@H]2CCC[C@H]2[C@@H]1CC[C@H](O)[C@H](C)N` please.
inactive

Same question for `C=CC(=O)N[C@@H](Cc1ccc(-c2cc(Cl)cc(Cl)c2)cc1)[C@@H](O)[C@H](O)C(=O)O` please.
inactive

Same question for `CC(=[N-])N1CCC[C@@H](Nc2c3ccccc3nc3ccccc23)C1.[Cl][Pt].[NH-]CCC[NH-]` please.
active

Same question for `COc1cc(NC(=O)c2cccc(-c3cc(=O)c4c(O)c(OC)c(OC)cc4o3)c2)cc(OC)c1OC` please.
inactive

Same question for `COc1ccc(-c2cc(-c3ccc(Nc4nc(Nc5ccccc5)nc(Nc5ccc(Cl)cc5)n4)cc3)nc(N)n2)cc1` please.
inactive

Same question for `N#Cc1cccc(-c2nc3ccccn3c2NCCN2CCOCC2)c1` please.
inactive

Same question for `CCCCN1CCN(c2ccc3nc(-c4ccc5nc(-c6cc(OC)c(OC)c(OC)c6)[nH]c5c4)[nH]c3c2)CC1` please.
inactive

Same question for `N#Cc1c(-c2ccc(C(F)(F)F)cc2)cc(N2CC(O)C2)n2c1nc1ccccc12` please.
active

Same question for `Nc1ccc(CCCCc2ccccc2)c(Cl)c1` please.
inactive
